# system: recombinant human A2A adenosine receptors (Homo sapiens)
# Sequence (P29274 whole entry): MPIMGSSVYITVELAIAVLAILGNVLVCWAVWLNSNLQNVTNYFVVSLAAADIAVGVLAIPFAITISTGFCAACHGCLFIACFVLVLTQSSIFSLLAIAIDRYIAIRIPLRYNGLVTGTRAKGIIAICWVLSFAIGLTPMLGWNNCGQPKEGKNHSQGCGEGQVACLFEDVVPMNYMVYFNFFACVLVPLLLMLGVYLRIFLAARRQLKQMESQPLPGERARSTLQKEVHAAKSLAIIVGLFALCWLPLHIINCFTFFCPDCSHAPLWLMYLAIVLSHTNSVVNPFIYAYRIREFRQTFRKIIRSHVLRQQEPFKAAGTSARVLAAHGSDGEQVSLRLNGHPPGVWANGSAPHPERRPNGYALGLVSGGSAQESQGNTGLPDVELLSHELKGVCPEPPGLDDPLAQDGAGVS
# assay.protocol: Competition binding screen, A2A (Table 1)
pKi: −log10 of the molar value.
quantity.name: pKi

> print(dat)
                                   compound  meas.value
1  O=C(O)C=Cc1ccc(-c2nc3c([nH]2)c(=O)n(CC2CCCCC2)c(=O)n3CC2CCCCC2)cc1 [BW-A493]        5.82

---

# system: recombinant human A2B adenosine receptors (Homo sapiens)
# Sequence (P29275 whole entry): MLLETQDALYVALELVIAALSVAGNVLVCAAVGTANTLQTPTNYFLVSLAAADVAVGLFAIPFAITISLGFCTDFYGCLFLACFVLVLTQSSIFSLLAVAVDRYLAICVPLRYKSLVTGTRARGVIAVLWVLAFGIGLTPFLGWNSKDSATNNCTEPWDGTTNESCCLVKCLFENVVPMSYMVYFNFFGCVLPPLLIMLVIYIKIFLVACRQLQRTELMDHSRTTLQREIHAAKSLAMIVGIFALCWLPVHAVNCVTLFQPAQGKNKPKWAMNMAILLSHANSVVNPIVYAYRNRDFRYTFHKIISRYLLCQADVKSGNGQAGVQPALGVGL
# assay.protocol: Competition binding screen, A2B (Table 1)
quantity.name: Ki (nM)

> print(dat)
                                   compound                                    system  quantity.name  meas.value
1  O=C(O)C=Cc1ccc(-c2nc3c([nH]2)c(=O)n(CC2CCCCC2)c(=O)n3CC2CCCCC2)cc1 [BW-A493]  recombinant human A2B adenosine receptors (Homo sapiens)             Ki         198

---

# system: recombinant human A3 adenosine receptors (Homo sapiens, UniProt P0DMS8)
# Sequence (P0DMS8 whole entry): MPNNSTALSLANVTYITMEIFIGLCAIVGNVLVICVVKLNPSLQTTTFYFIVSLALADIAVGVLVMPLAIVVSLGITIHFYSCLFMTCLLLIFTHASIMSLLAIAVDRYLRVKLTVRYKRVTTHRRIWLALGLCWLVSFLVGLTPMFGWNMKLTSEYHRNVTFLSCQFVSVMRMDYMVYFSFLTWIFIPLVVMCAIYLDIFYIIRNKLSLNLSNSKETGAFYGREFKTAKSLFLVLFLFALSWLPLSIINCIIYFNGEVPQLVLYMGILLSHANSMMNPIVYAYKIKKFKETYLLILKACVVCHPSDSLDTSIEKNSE
# assay.protocol: Competition binding screen, A3 (Table 1)
quantity.name: Ki (nM)

> print(dat)
                                   compound                                    system  quantity.name  unit  meas.value
1  O=C(O)C=Cc1ccc(-c2nc3c([nH]2)c(=O)n(CC2CCCCC2)c(=O)n3CC2CCCCC2)cc1 [BW-A493]  recombinant human A3 adenosine receptors (Homo sapiens, UniProt P0DMS8)             Ki    nM         922
